Source: patent US6936585B2

- Subject Of Test: CRF1R (Homo sapiens)
- Procedure Summary: CRF1R agonist activation (EC50 / Emax), called comparative CRF binding
- Assay type: cell-based
- Experimental Parameters: read-out: CRF1R Emax
- Protocol: The pharmacological activity and selectivity of the peptides of present invention can be determined using published test procedures. See, e.g, U.S. patent application Ser. No. 09/799,978 (now issued U.S. Pat. No. 6,670,140). […] In one example, cAMP induction is measured with the use of DNA constructs containing the cAMP responsive element linked to any of a variety of reporter genes can be introduced into cells expressing CRFRs. […]
Ends that are not written are not given here.
Each item that follows carries a reported Emax.

| Substance | Subject Of Test | Uom | Emax |
| --- | --- | --- | --- |
| HHHHHHIVLSLDVPIGLLQILLEQARARAAREQATTNARILARN-NH2 [compound 296] | CRF1R (Homo sapiens) | % | 4 |
| SQEPPISLDLPTYLLREVLEMTKADQLAQQAHSNRKLLDIA-NH2 [compound 106] | CRF1R (Homo sapiens) | % | 4.8 |
| SEEPPISLDLTFHLLREVLEMARAEQLAQQAHTNARILARV-NH2 [compound 161] | CRF1R (Homo sapiens) | % | 77 |
| SQEPPISLDLPTQLLREVLEMTKADQLAQQAHSNRKLLDIA-NH2 [compound 105] | CRF1R (Homo sapiens) | % | 5.2 |
| NDDPPISIDLPYYLLRNMIEMARIENEREQAGLNAKYLAEV-NH2 [compound 267] | CRF1R (Homo sapiens) | % | 22.8 |
| SQEPPISLDLPFQLLREVLEMTKADQLAQQAHSNRKLLDIA-NH2 [compound 91] | CRF1R (Homo sapiens) | % | 4 |
| NDDPPISIDLPFHLLRNMIEMARIENEREQAGLNAKYLAEV-NH2 [compound 262] | CRF1R (Homo sapiens) | % | 100 |
| NDDPPISIDLPFYLLRNMIEMARIENEREQAGLNAKYLAEV-NH2 [compound 261] | CRF1R (Homo sapiens) | % | 100 |
| SQEPPISLDLPFELLREVLEMTKADQLAQQAHSNRKLLDIA-NH2 [compound 97] | CRF1R (Homo sapiens) | % | 4.25 |

----------
- Subject Of Test: CRF2R (Homo sapiens)
- Sequence (Q13324 1-411): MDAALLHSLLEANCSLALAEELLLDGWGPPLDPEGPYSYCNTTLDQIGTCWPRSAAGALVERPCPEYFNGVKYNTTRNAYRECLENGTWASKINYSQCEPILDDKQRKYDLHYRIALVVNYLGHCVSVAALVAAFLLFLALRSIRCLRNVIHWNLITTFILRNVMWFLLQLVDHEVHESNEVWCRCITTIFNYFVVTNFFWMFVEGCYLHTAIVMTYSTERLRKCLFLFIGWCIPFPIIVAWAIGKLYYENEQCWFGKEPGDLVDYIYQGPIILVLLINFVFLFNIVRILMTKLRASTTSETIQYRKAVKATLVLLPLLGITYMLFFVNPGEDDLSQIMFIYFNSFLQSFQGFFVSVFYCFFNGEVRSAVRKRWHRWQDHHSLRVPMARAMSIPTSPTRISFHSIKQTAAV
- Procedure Summary: CRF2R agonist activation (EC50 / Emax), called comparative CRF binding
- Format: cell-based
- Experimental Parameters: read-out: CRF2R Emax
Ends that are not written are not given here.
Quantity Name: Emax (%)

| Substance | Result Value |
| --- | --- |
| NDDPPISIDLPFFLLRNMIEMARIENEREQAGLNAKYLAEV-NH2 [compound 264] | 66.3 |
| SQEPPISLDLPIQLLREVLEMTKADQLAQQAHSNRKLLDIA-NH2 [compound 100] | 9.85 |
| NDDPPISIDLPTYLLRNMIEMARIENEREQAGLNAKYLAEV-NH2 [compound 266] | 19.4 |
| NDDPPISIDLPLYLLRNMIEMARIENEREQAGLNAKYLAEV-NH2 [compound 271] | 69 |
| SEEPPISLDVPIGLLQEVLEMARAEQLAQQAHSNRKLMEII-NH2 [compound 162] | 7 |

----------
- Subject Of Test: CRF1R (Homo sapiens, UniProt P34998)
- Sequence (P34998 24-415): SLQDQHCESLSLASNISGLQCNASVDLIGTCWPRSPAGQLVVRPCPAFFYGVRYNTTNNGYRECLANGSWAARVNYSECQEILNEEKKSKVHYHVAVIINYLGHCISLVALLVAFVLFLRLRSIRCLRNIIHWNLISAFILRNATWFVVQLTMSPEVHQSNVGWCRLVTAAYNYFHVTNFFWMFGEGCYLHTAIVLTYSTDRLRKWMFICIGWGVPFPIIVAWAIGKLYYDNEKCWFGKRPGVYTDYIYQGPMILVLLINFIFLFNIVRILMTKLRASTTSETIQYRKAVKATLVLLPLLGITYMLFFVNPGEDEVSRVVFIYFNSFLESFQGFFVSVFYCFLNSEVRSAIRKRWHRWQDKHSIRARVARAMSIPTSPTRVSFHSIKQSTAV
- Procedure Summary: CRF1R agonist activation (EC50 / Emax), called comparative CRF binding
- Assay type: cell-based
- Experimental Parameters: read-out: CRF1R Emax
Ends that are not written are not given here.

| Substance | Emax [%] |
| --- | --- |
| SQEPPISLDLTIHLLREVLEMTKADQLAQQAHSNRKLLDIA-NH2 [compound 87] | 5.3 |
| SQEPPISLDLPLQLLREVLEMTKADQLAQQAHSNRKLLDIA-NH2 [compound 95] | 5.55 |
| SQEPPISLDLPLGLLREVLEMTKADQLAQQAHSNRKLLDIA-NH2 [compound 90] | 4 |
| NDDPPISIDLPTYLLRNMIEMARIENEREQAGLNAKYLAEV-NH2 [compound 266] | 4.45 |
| NDDPPISIDLPQYLLRNMIEMARIENEREQAGLNAKYLAEV-NH2 [compound 265] | 9.3 |
| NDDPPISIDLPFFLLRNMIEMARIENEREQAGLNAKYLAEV-NH2 [compound 264] | 100 |
| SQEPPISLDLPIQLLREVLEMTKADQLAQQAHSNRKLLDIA-NH2 [compound 100] | 6.25 |
| SQEPPISLDLPLYLLREVLEMTKADQLAQQAHSNRKLLDIA-NH2 [compound 101] | 7.35 |
| SQEPPISLDLPTHLLREVLEMTKADQLAQQAHSNRKLLDIA-NH2 [compound 99] | 4.35 |
| SQEPPISLDLTFGLLREVLEMTKADQLAQQAHSNRKLLDIA-NH2 [compound 88] | 11.2 |
| NDDPPISIDLPFQLLRNMIEMARIENEREQAGLNAKYLAEV-NH2 [compound 258] | 23.6 |
| SQEPPISLDLPFYLLREVLEMTKADQLAQQAHSNRKLLDIA-NH2 [compound 96] | 16.3 |
| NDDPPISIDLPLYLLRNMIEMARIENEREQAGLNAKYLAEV-NH2 [compound 271] | 80.7 |
| SQEPPISLDLPIHLLREVLEMTKADQLAQQAHSNRKLLDIA-NH2 [compound 94] | 7.3 |
| SQEPPISLDLTFHLLREVLEQARARAAREQATTNARILARV-NH2 [compound 157] | 91 |
